Values were extracted from PubChem BioAssay (NCI).

# System: IGROV1 ovarian
# Test name: NCI tumour cell line growth inhibition, 48 h
Measured metric: TGI

Solved entries (count: 5):
O=c1nc(NC(c2ccccc2)(c2ccccc2)c2ccccc2)ccn1CCCl = 48.1 µM
Cc1c(-c2coc(-c3ccccc3)n2)c(=O)n(-c2ccccc2)n1C = > 100 µM
Cc1c(NC(=O)CCl)c(=O)oc2c(C)c3occc(=O)c3cc12 = 31.2 µM
CCN1C(=O)N(CC)C2C1NN=c1s/c(=C\c3cccs3)c(=O)n12 (configuration not stated) = > 100 µM
O=C(/C=C/c1ccc(OCc2ccccc2)cc1)NCc1ccc(C(=O)NCc2ccccc2)cc1 = > 100 µM

Returns the measured TGI for the input compound. Input: CCOc1cc(C(=O)O)c2c(ccc3ccc(OC)c(OC)c32)c1OC
> 100 µM

Returns the measured TGI for the input compound. Input: Cc1c(OCCCOc2ccc3c(=O)cc(-c4ccccc4)oc3c2C)ccc2c(=O)cc(-c3ccccc3)oc12
> 100 µM

Reported TGI, compound C=C1C(=O)O[C@H]2[C@H]1CC/C(Cn1cc(Cc3c[nH]c4ccccc34)nn1)=C\CC[C@@]1(C)O[C@@H]21 : ____
3.84 µM

Item C[C@]12CC[C@@H]3c4ccc(O)cc4CC[C@H]3[C@@H]1CC[C@@H]2NS(=O)(=O)c1cccc(Cl)c1 has what recorded TGI?
16.8 µM

Quick one: TGI of O=C1C=CC(=O)C2C1Cc1ccccc1C2c1ccccc1 (configuration not stated) ?
> 100 µM

Could you share which TGI value was measured for COC(NC(N)=O)C(=O)O (configuration not stated) ?
> 100 µM

So what does the record say about TGI for CCCCC(=C=C(C)CO)C1CCCN1C(=O)OC(C)(C)C (configuration not stated) ?
43.6 µM

Which TGI reading was recorded for the compound Cc1c(N)nc([C@H](CC(N)=O)NC[C@H](N)C(N)=O)nc1C(=O)N[C@H](C(=O)N[C@H](C)[C@@H](O)CC(=O)N[C@H](C(=O)NC(O[C@@H]1O[C@@H](C)[C@@H](N)[C@@H](O)[C@H]1O)C(O)c1nc(-c2nc(C(=O)NCCCCN)cs2)cs1)[C@@H](C)O)[C@@H](O[C@@H]1O[C@@H](CO)[C@@H](O)[C@H](O)[C@@H]1O[C@H]1O[C@H](CO)[C@@H](O)[C@H](OC(N)=O)[C@@H]1O)c1c[nH]cn1 (some centres not stated) ?
> 50 µM
